Biological target: purified catalytic domain of recombinant human TACE (rhTACEc) (Homo sapiens, UniProt P78536, N452Q/S266A)
Construct: Residue 215 to 477 with two mutation (S266A and N452Q) and a 6×His tail; 6xHis (C); made in house; host or cells: baculovirus/Hi5 insect cells
Sequence (P78536 215-477 S266A/N452Q): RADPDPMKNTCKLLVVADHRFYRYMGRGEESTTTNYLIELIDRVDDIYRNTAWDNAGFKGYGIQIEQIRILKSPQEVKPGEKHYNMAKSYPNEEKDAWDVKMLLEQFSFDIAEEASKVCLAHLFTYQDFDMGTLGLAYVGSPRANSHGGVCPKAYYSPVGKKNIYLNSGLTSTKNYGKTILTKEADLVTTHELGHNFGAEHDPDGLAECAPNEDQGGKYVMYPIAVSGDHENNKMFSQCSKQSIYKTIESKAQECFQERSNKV
Assay: TACE kinetic assay: cleavage of internally quenched peptide substrate SPDL-3, fluorescence
Assay type: biochemical
Conditions: TACE inhibitory activity, class symbols; read-out: Ki
value-type: Ki

Recorded result, `O=C(NCc1ccc(-c2ccccc2OC(F)(F)F)c[n+]1[O-])[C@H](O)[C@@H](O)C(=O)N1Cc2ccccc2C1` , Ki: 100 to 1000 nM

Noted for CNc1ncc2c(n1)CN(C(=O)[C@H](O)[C@@H](O)C(=O)N[C@H](C)c1ccc(-n3cccn3)cc1)C2C (stereo partly shown) : its Ki reads < 20 nM

In plain terms, CC#CCOc1cc([C@@H](C)NC(=O)[C@H](O)[C@@H](O)C(=O)N2CC=CC2c2cccc(Cl)c2)ccc1-n1cccn1 (stereo partly shown) has a documented Ki of < 20 nM

Record C[C@@H](NC(=O)[C@H](O)[C@@H](O)C(=O)N1CCCC1(C)c1ccccc1)c1ccc(-n2cccn2)cc1 (stereo partly shown) , field Ki: < 20 nM

Notebook: `CC1(C)c2ccccc2CN1C(=O)[C@H](O)[C@@H](O)C(=O)NCC1CCN(c2ccccc2C#N)CC1` , Ki read as < 20 nM

Record `O=C(NCC1CCN(c2cccc(F)c2OC(F)(F)F)CC1)[C@H](O)[C@@H](O)C(=O)N1CCCC1` , field Ki: > 1000 nM

The measured Ki associated with `CC#CCOc1cc([C@@H](C)NC(=O)[C@H](O)[C@@H](O)C(=O)N2Cc3cccnc3C2)ccc1-n1cccn1` reads < 20 nM

---

Target: purified catalytic domain of recombinant human TACE (rhTACEc) (Homo sapiens, UniProt P78536, N452Q/S266A)
Construct: Residue 215 to 477 with two mutation (S266A and N452Q) and a 6×His tail; 6xHis (C); made in house; host or cells: baculovirus/Hi5 insect cells
Test: TACE kinetic assay: cleavage of internally quenched peptide substrate SPDL-3, fluorescence
Assay type: biochemical
Conditions: TACE inhibitory activity, class symbols; read-out: Ki
Please provide measured Ki for the entries that follow.

# Ki of CC(C)CN(C(=O)[C@H](O)[C@@H](O)C(=O)N[C@H](C)c1ccc(-n2cccn2)cc1)C(C)c1cccc(Cl)c1 (some centres unmarked) = > 1000 nM

Ki recorded for this compound, `O=C(NCC1CCN(c2ccc(F)cc2OCC(F)(F)F)CC1)[C@H](O)[C@@H](O)C(=O)N1CCCC1` , is 20 to 100 nM

The value of Ki measured for the compound `CNc1nccc([C@H]2CCCN2C(=O)[C@H](O)[C@@H](O)C(=O)N[C@H](C)c2ccc(-n3cccn3)cc2)n1` turned out to be < 20 nM

Ki in this record for `Cc1ncc2c(n1)CN(C(=O)[C@H](O)[C@@H](O)C(=O)N[C@H](C)c1ccc(-n3cccn3)cc1)C2` : 100 to 1000 nM

Lookup result for `Cc1nc([C@H]2CCCN2C(=O)[C@H](O)[C@@H](O)C(=O)N[C@H](C)c2ccc(-n3cccn3)cc2)cs1` ; measured Ki: < 20 nM

Ki measured on CC1c2cncnc2CN1C(=O)[C@H](O)[C@@H](O)C(=O)N[C@H](C)c1ccc(-n2cccn2)cc1 (some centres unmarked) = 20 to 100 nM

Sure, the documented Ki for `Cn1ccnc1[C@H](O)[C@@H](O)C(=O)NCc1ccc(-n2cccn2)cc1` is > 1000 nM

Record summary for `O=C([C@H](O)[C@@H](O)c1cncc(N2CCN(c3ccccc3)CC2)n1)N1Cc2ccccc2C1` : reported Ki = > 1000 nM

Summary for this compound, `C[C@@H](NC(=O)[C@H](O)[C@@H](O)C(=O)N1CCC[C@@H]1c1cccc(Cl)c1)c1ccc(-n2cccn2)cc1` : Ki is < 20 nM

// Ki lookup, compound = `CCOc1cc(F)ccc1-c1ccc(CNC(=O)[C@](C)(O)[C@@H](O)C(=O)N2Cc3cccnc3C2)cc1` , result: < 20 nM

# compound `COc1cccc([C@@H](C)NC(=O)[C@H](O)[C@@H](O)C(=O)N2Cc3cccnc3C2)c1` ; its Ki = > 1000 nM

Input `CNc1nc([C@H]2C[C@H]3C[C@H]3N2C(=O)[C@H](O)[C@@H](O)C(=O)N[C@H](C)c2ccc(-n3cccn3)cc2)cs1` . Output Ki: < 20 nM

Recorded result, `C[C@@H](NC(=O)[C@H](O)[C@@H](O)C(=O)N1CCC[C@@H]1c1csc(Nc2cccnc2)n1)c1ccc(-n2cccn2)cc1` , Ki: < 20 nM

Short answer for `O=C(NCc1ccc(-c2ccccc2OCCN2CCOCC2)cc1)[C@H](O)[C@@H](O)C(=O)N1CCCC1` : Ki was > 1000 nM

---

Consider the following molecules; for each one, report its Ki.
Biological target: purified catalytic domain of recombinant human TACE (rhTACEc) (Homo sapiens, UniProt P78536, N452Q/S266A)
Construct: Residue 215 to 477 with two mutation (S266A and N452Q) and a 6×His tail; 6xHis (C); made in house; host or cells: baculovirus/Hi5 insect cells
Assay: TACE kinetic assay: cleavage of internally quenched peptide substrate SPDL-3, fluorescence
Type: biochemical
Details: TACE inhibitory activity, class symbols; read-out: Ki

# Ki (molecule: `C[C@@H](NC(=O)[C@H](O)[C@@H](O)C(=O)N1CCC[C@@H]1c1ccn(-c2ccccc2)n1)c1ccc(-n2cccn2)cc1` ) is < 20 nM

Briefly, Ki measured for CC(c1cccc(Cl)c1)N(CC1CC1)C(=O)[C@H](O)[C@@H](O)C(=O)N[C@H](C)c1ccc(-n2cccn2)cc1 (stereo partly drawn) : > 1000 nM

Value of measured Ki for the entry C[C@@H](NC(=O)[C@H](O)[C@@H](O)C(=O)N1CCCC1(C)c1nccs1)c1ccc(-n2cccn2)cc1 (stereo partly drawn) : < 20 nM

// recorded Ki for `N#Cc1cc(F)ccc1N1CCC(CNC(=O)[C@H](O)[C@@H](O)c2ccccn2)CC1` : > 1000 nM

Ki for `C[C@@H](NC(=O)[C@H](O)[C@@H](O)C(=O)N1Cc2cccnc2C1)c1cccc(O)c1` is > 1000 nM

So, CCN(C(=O)[C@H](O)[C@@H](O)C(=O)N[C@H](C)c1ccc(-n2cccn2)cc1)C(C)c1cccc(Cl)c1 (stereo partly drawn) ? Its Ki was 100 to 1000 nM

The reported Ki of the molecule `O=C(NCc1ccc(-c2ccccc2)cc1)[C@H](O)[C@@H](O)C(=O)N1Cc2cccnc2C1` was 20 to 100 nM

Quick note, Ki for `C[C@@H](NC(=O)[C@H](O)[C@@H](O)C(=O)N1CCC[C@@H]1c1ccn(-c2ccc(F)cc2)n1)c1ccc(-n2cccn2)cc1` landed at < 20 nM

Per the records, this molecule ( `C[C@@H](NC(=O)[C@H](O)[C@@H](O)C(=O)N1CCN2CCC[C@H]2C1)c1ccc(-n2cccn2)cc1` ) has Ki equal to 100 to 1000 nM

Short answer for C[C@@H](NC(=O)[C@](C)(O)[C@@H](O)C(=O)N1CCCC1(C)c1cccc(Cl)c1)c1ccc(-n2cccn2)cc1 (stereo partly drawn) : Ki was > 1000 nM

Looking up `O=C(NC[C@H]1CC[C@@H](n2c(C(F)(F)F)nc3ccccc32)CC1)[C@H](O)[C@@H](O)C(=O)N1CCC[C@@H]1c1ccccc1` , I found its Ki recorded as < 20 nM

What the record says about `C[C@@H](NC(=O)[C@](C)(O)[C@@H](O)C(=O)N1Cc2cccnc2C1)c1ccc(-n2cccn2)cc1` : Ki is < 20 nM

Data point: `C[C@@H](NC(=O)[C@H](O)[C@@H](O)C(=O)N1C[C@H](O)C[C@H]1c1cccc(Cl)c1)c1ccc(-n2cccn2)cc1` ; Ki = < 20 nM

// Ki lookup, molecule = C[C@H](c1ccc(-n2cccn2)cc1)N1CCO[C@H]([C@@H](O)C(=O)N2CCCC2c2ccccc2)C1=O (stereo partly drawn) , result: > 1000 nM

So, `C[C@@H](NC(=O)[C@H](O)[C@@H](O)C(=O)N1CCc2ccccc2C1)c1ccc(-n2cccn2)cc1` ? Its Ki was < 20 nM

Form: molecule = C[C@@H](NC(=O)[C@H](O)[C@@H](O)C(=O)N1CCCCC1c1csc(N)n1)c1ccc(-n2cccn2)cc1 (stereo partly drawn) ; Ki = 20 to 100 nM

In plain terms, `C[C@@H](NC(=O)[C@](C)(O)[C@@H](O)C(=O)N1CCc2ncccc2C1)c1ccc(-n2cccn2)cc1` has a documented Ki of 100 to 1000 nM

Notebook: `N#Cc1cc(F)ccc1N1CCC(CNC(=O)[C@H](N)[C@@H](O)C(=O)N2CCCC2)CC1` , Ki read as > 1000 nM

The molecule identified as `C[C@@H](NC(=O)[C@H](O)[C@@H](O)C(=O)N1CCc2nc(N)sc2C1)c1ccc(-n2cccn2)cc1` registered its Ki at < 20 nM

Ki reported for this molecule `CC(C)(NC(=O)[C@H](O)[C@@H](O)C(=O)N1CCCC1)C1CCN(c2ccc(F)cc2C#N)CC1` : 20 to 100 nM

Entry under test: `C[C@@H](NC(=O)[C@H](O)[C@@H](O)C(=O)N1Cc2ccc[n+]([O-])c2C1)c1ccc(-n2cccn2)cc1` . Its Ki was 20 to 100 nM

// field: Ki; key: `C[C@@H](NC(=O)[C@](C)(O)[C@@H](O)C(=O)N1Cc2cccnc2C1)c1ccc(-n2cccn2)c(OCc2ccccc2)c1` ; value = < 20 nM

Value of measured Ki for the entry `C[C@@H](NC(=O)[C@H](O)[C@@H](O)C(=O)N1CCOCC1)c1ccc(-n2cccn2)cc1` : 20 to 100 nM

Given item C[C@@H](NC(=O)[C@H](O)[C@@H](O)C(=O)N1CC(C)(C)CC1(C)c1nccs1)c1ccc(-n2cccn2)cc1 (stereo partly drawn) , the value recorded as its Ki is 100 to 1000 nM

# Ki of `CCNc1nc([C@H]2C[C@@H](C)CN2C(=O)[C@H](O)[C@@H](O)C(=O)N[C@H](C)c2ccc(-n3cccn3)cc2)cs1` = < 20 nM

Lookup result for `CCOc1cc(F)ccc1-c1ccc(CNC(=O)[C@H](O)[C@@H](O)C(=O)N2CCCC2)nc1` ; measured Ki: < 20 nM

The measured Ki associated with `Cn1c(Br)cnc1[C@H](O)[C@@H](O)C(=O)NCC1CCN(c2ccc(F)cc2C#N)CC1` reads > 1000 nM

All values here come from patent US7652020B2.
